Just for reference, PubChem BioAssay AID1918931 is where these values come from.

Test system: 138582-337-R-J1-PDC complex spheroid viability
ASSAY REMARKS: Anticancer human tumor 138582-337-R-J1-PDC patient-derived Merkel cell tumor cell line growth inhibition
STUDY CONDITIONS: second compound 10 µM; first compound 10 µM; stronger effect = lower value
OBSERVED PROPERTY: viability, T/C (%)
Response body: numeric value in %, unit text excluded.

>  <MOLECULE>
CC(C)c1c(-c2ccccc2)nc2c(C#N)c[nH]n2c1=O + NC1CCC(NC2CC2c2ccccc2)CC1

>  <VALUE REPORTED>
79.7

$$$$

Value of measured viability, T/C for the entry CC(C)c1c(-c2ccccc2)nc2c(C#N)c[nH]n2c1=O + NC1CC1c1ccc(-c2cccc(O)c2)cc1 : 51.6

Value of viability, T/C reported for the molecule O=C(c1cc(Cc2n[nH]c(=O)c3ccccc23)ccc1F)N1CCN(C(=O)C2CC2)CC1 + NC1CC1c1ccc(-c2cccc(O)c2)cc1 is 87.1

The measured viability, T/C associated with CC1(C)CCC(CN2CCN(c3ccc(C(=O)NS(=O)(=O)c4ccc(NCC5CCOCC5)c([N+](=O)[O-])c4)c(Oc4cnc5[nH]ccc5c4)c3)CC2)=C(c2ccc(Cl)cc2)C1 + NC1CC1c1ccc(-c2cccc(O)c2)cc1 reads 1.17

====

Test system: 138582-337-R-J1-PDC complex spheroid viability
ASSAY REMARKS: Anticancer human tumor 138582-337-R-J1-PDC cell line growth inhibition;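 also: spheroids exposed to agents for 7 days; 100% = DMSO vehicle control viability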
STUDY CONDITIONS: second compound 0.316 µM; first compound 0.3 µM; stronger effect = lower value
The entries below are paired with their reported viability, T/C.
Numbers only here, please. The scale is %.

Previously resolved entries follow.
>  <MOLECULE>
NS(=O)(=O)OCC1CC(n2ccc3c(NC4CCc5ccccc54)ncnc32)CC1O (centres undefined) + NC1CC1c1ccc(-c2cccc(O)c2)cc1

>  <OBSERVED PROPERTY>
viability, T/C

>  <READOUT UNIT>
%

>  <VALUE REPORTED>
34.3

$$$$
>  <MOLECULE>
O=C(C=Cc1cccc(S(=O)(=O)Nc2ccccc2)c1)NO + NC1CC1c1ccc(-c2cccc(O)c2)cc1

>  <OBSERVED PROPERTY>
viability, T/C

>  <READOUT UNIT>
%

>  <VALUE REPORTED>
21.1

$$$$

GET /value?item= CCc1c2c(nc3ccc(O)cc13)-c1cc3c(c(=O)n1C2)COC(=O)[C@]3(O)CC + NC1CCC(NC2CC2c2ccccc2)CC1 &field=viability, T/C returns 0.5

Given item CCN(c1cc(-c2ccc(CN3CCOCC3)cc2)cc(C(=O)NCc2c(C)cc(C)[nH]c2=O)c1C)C1CCOCC1 + NC1CC1c1ccc(-c2cccc(O)c2)cc1 , the value recorded as its viability, T/C is 66.6

====

System: 138582-337-R-J1-PDC complex spheroid viability
ASSAY REMARKS: Anticancer human tumor 138582-337-R-J1-PDC cell line growth inhibition;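 also: spheroids exposed to agents for 7 days; 100% = DMSO vehicle control viability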
STUDY CONDITIONS: second compound 0.1 µM; first compound 0.1 µM; stronger effect = lower value
In this section we review reported viability, T/C values for a set of compounds.

Use these answered entries as a reference point.
>  <COMPOUND>
COc1cc(Nc2ncc3c(n2)-c2ccc(Cl)cc2C(c2c(F)cccc2OC)=NC3)ccc1C(=O)O + NC1CC1c1ccc(-c2cccc(O)c2)cc1

>  <VALUE REPORTED>
66.4%

$$$$
>  <COMPOUND>
CC(C)c1c(-c2ccccc2)nc2c(C#N)c[nH]n2c1=O + NC1CCC(NC2CC2c2ccccc2)CC1

>  <VALUE REPORTED>
103%

$$$$
>  <COMPOUND>
COc1ccc([C@@H](O)c2cc(-c3ncnc4cc(N5CCOCC5)ccc34)c(F)cc2Cl)nn1 + NC1CCC(NC2CC2c2ccccc2)CC1

>  <VALUE REPORTED>
96.2%

$$$$
>  <COMPOUND>
Nc1ncn(C2CC(O)C(CO)O2)c(=O)n1 (configuration not stated) + NC1CC1c1ccc(-c2cccc(O)c2)cc1

>  <VALUE REPORTED>
85.7%

$$$$
>  <COMPOUND>
O=C(c1cc(Cc2n[nH]c(=O)c3ccccc23)ccc1F)N1CCN(C(=O)C2CC2)CC1 + NC1CC1c1ccc(-c2cccc(O)c2)cc1

>  <VALUE REPORTED>
74.9%

$$$$

Fill in: 138582-337-R-J1-PDC complex spheroid viability viability, T/C for Cn1ncnc1C1c2n[nH]c(=O)c3cc(F)cc(c23)NC1c1ccc(F)cc1 (configuration not stated) + NC1CCC(NC2CC2c2ccccc2)CC1 = 98.5%

Entry COc1ccc([C@@H](O)c2cc(-c3ncnc4cc(N5CCOCC5)ccc34)c(F)cc2Cl)nn1 + NC1CC1c1ccc(-c2cccc(O)c2)cc1 : viability, T/C on 138582-337-R-J1-PDC complex spheroid viability = 60.4%

====

System: 138582-337-R-J1-PDC complex spheroid viability
ASSAY REMARKS: Anticancer human tumor 138582-337-R-J1-PDC cell line growth inhibition; active = viability on the fitted dose curve at most 10% of control; inactive = the rest;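 also: spheroids exposed to agents for 7 days; 100% = DMSO vehicle control viability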
STUDY CONDITIONS: second compound 0.1 µM; first compound 0.1 µM
Answer with one of the outcomes given here: active, inactive

Example entries and their recorded answers appear below.
>  <COMPOUND>
CC1(C)CCC(CN2CCN(c3ccc(C(=O)NS(=O)(=O)c4ccc(NCC5CCOCC5)c([N+](=O)[O-])c4)c(Oc4cnc5[nH]ccc5c4)c3)CC2)=C(c2ccc(Cl)cc2)C1 + NC1CC1c1ccc(-c2cccc(O)c2)cc1

>  <LABEL VALUE>
inactive

$$$$
>  <COMPOUND>
CC1COCCN1c1cc(-c2ccnn2C)c2ccnc(-c3ccn[nH]3)c2n1 (stereo unspecified) + NC1CCC(NC2CC2c2ccccc2)CC1

>  <LABEL VALUE>
inactive

$$$$
>  <COMPOUND>
COc1cc(Nc2ncc3c(n2)-c2ccc(Cl)cc2C(c2c(F)cccc2OC)=NC3)ccc1C(=O)O + NC1CCC(NC2CC2c2ccccc2)CC1

>  <LABEL VALUE>
inactive

$$$$
>  <COMPOUND>
CC(C)CC(NC(=O)CNC(=O)c1cc(Cl)ccc1Cl)B1OC(=O)CC(CC(=O)O)(C(=O)O)O1 (stereo unspecified) + NC1CC1c1ccc(-c2cccc(O)c2)cc1

>  <LABEL VALUE>
active

$$$$
>  <COMPOUND>
CC1COCCN1c1cc(C2(S(C)(=N)=O)CC2)nc(-c2ccnc3[nH]ccc23)n1 (stereo unspecified) + NC1CC1c1ccc(-c2cccc(O)c2)cc1

>  <LABEL VALUE>
inactive

$$$$

Enquiry: Dear colleague, could you share the recorded outcome for CC1COCCN1c1cc(-c2ccnn2C)c2ccnc(-c3ccn[nH]3)c2n1 (stereo unspecified) + NC1CC1c1ccc(-c2cccc(O)c2)cc1 when you have a moment?
Return: inactive

====

Test system: 138582-337-R-J1-PDC complex spheroid viability
ASSAY REMARKS: Anticancer human tumor 138582-337-R-J1-PDC cell line growth inhibition;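 also: spheroids exposed to agents for 7 days; 100% = DMSO vehicle control viability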
STUDY CONDITIONS: second compound 1 µM; first compound 0.03 µM; stronger effect = lower value
Binary label based on viability, T/C with cut-off 70%: below gives met, not below gives not met.

Example entries begin here.
>  <MOLECULE>
Nc1ccccc1NC(=O)c1ccc(CNC(=O)OCc2cccnc2)cc1 + NC1CCC(NC2CC2c2ccccc2)CC1

>  <STUDY TARGET>
138582-337-R-J1-PDC complex spheroid viability

>  <LABEL VALUE>
not met

$$$$
>  <MOLECULE>
Nc1ccn(C2OC(CO)C(O)C2(F)F)c(=O)n1 (stereo not drawn) + NC1CC1c1ccc(-c2cccc(O)c2)cc1

>  <STUDY TARGET>
138582-337-R-J1-PDC complex spheroid viability

>  <LABEL VALUE>
not met

$$$$
>  <MOLECULE>
CCc1c2c(nc3ccc(O)cc13)-c1cc3c(c(=O)n1C2)COC(=O)[C@]3(O)CC + NC1CC1c1ccc(-c2cccc(O)c2)cc1

>  <STUDY TARGET>
138582-337-R-J1-PDC complex spheroid viability

>  <LABEL VALUE>
met

$$$$

Enquiry: Please state whether viability, T/C is below 70% for NS(=O)(=O)OCC1CC(n2ccc3c(NC4CCc5ccccc54)ncnc32)CC1O (stereo not drawn) + NC1CCC(NC2CC2c2ccccc2)CC1
Return: not met

Enquiry: Report whether reported viability, T/C is lower than 70% (strictly) for CCN(c1cc(-c2ccc(CN3CCOCC3)cc2)cc(C(=O)NCc2c(C)cc(C)[nH]c2=O)c1C)C1CCOCC1 + NC1CC1c1ccc(-c2cccc(O)c2)cc1
Return: not met

Enquiry: Answer whether the molecule NS(=O)(=O)OCC1CC(n2ccc3c(NC4CCc5ccccc54)ncnc32)CC1O (stereo not drawn) + NC1CC1c1ccc(-c2cccc(O)c2)cc1 has viability, T/C strictly less than 70%
Return: met

Enquiry: Field: below-cutoff. Rule: recorded viability, T/C strictly less than 70%. Subject: Nc1ccn(C2OC(CO)C(O)C2(F)F)c(=O)n1 (stereo not drawn) + NC1CCC(NC2CC2c2ccccc2)CC1
Return: not met
